Listed here: items and their measured TGI.
Test summary: Growth inhibition of human UACC62 cells after 48 hrs by sulforhodamine B assay
Assay type: functional
Recorded conditions: UACC-62, 48 h
Record the value in µM, omitting the unit from your answer.

Some compounds with known TGI results, for comparison:
Compound | Experimental value
CC1=CC[C@H](C(C)(C)NC(=S)N/N=C/c2ccco2)CC1 | 14.1
CC(=O)O[C@H]1C(=O)[C@@]2(C)[C@H]([C@H](OC(=O)c3ccccc3)[C@]3(O)C[C@H](OC(=O)[C@H](O)[C@@H](NC(=O)c4ccccc4)c4ccccc4)C(C)=C1C3(C)C)[C@]1(OC(C)=O)CO[C@@H]1C[C@@H]2O [PACLITAXEL] | 0.5
CC1=CC[C@H](C(C)(C)NC(=S)N/N=C/c2ccccc2Cl)CC1 | 98

Please examine the following record next.
TGI reported for this compound CC1=CC[C@H](C(C)(C)NC(=S)N/N=C/c2ccccc2[N+](=O)[O-])CC1 : 92.2

---

Test summary: Growth inhibition of human NCI-ADR-RES cells after 48 hrs by sulforhodamine B assay
Assay type: functional
Measured property: GI50 (µM)
Quick note: give the figure in µM, leave out the unit.

Mol smiles | Unit name | GI50
CC1=CC[C@H](C(C)(C)NC(=S)N/N=C(\C)c2ccc([N+](=O)[O-])cc2)CC1 | µM | 9.9

Recorded result, CC1=CC[C@H](C(C)(C)NC(=S)N/N=C/c2ccc(C)cc2)CC1 , GI50: 78.5

Record summary for CC1=CC[C@H](C(C)(C)NC(=S)N/N=C/c2cccc(Cl)c2)CC1 : reported GI50 = 67.5

// sample CC1=CC[C@H](C(C)(C)NC(=S)N/N=C/c2ccco2)CC1 , its GI50 was 9.8

Notebook: CC1=CC[C@H](C(C)(C)NC(=S)N/N=C/c2ccc[nH]2)CC1 , GI50 read as 78

GI50 measured on CC1=CC[C@H](C(C)(C)NC(=S)N/N=C/c2ccccc2Cl)CC1 = 75

The compound CC1=CC[C@H](C(C)(C)NC(=S)NN)CC1 showed GI50 equal to 39.3

---

Test system: HT-29
Test summary: Growth inhibition of human HT-29 cells after 48 hrs by sulforhodamine B assay
Assay type: functional
Recorded conditions: HT-29, 48 h
Entries and their measured GI50 follow.

Molecule | Measured property | Experimental value
CC1=CC[C@H](C(C)(C)NC(=S)N/N=C/c2cccs2)CC1 | GI50 | 17.8 µM
CC(=O)O[C@H]1C(=O)[C@@]2(C)[C@H]([C@H](OC(=O)c3ccccc3)[C@]3(O)C[C@H](OC(=O)[C@H](O)[C@@H](NC(=O)c4ccccc4)c4ccccc4)C(C)=C1C3(C)C)[C@]1(OC(C)=O)CO[C@@H]1C[C@@H]2O [PACLITAXEL] | GI50 | 0.001 µM
CC1=CC[C@H](C(C)(C)NC(=S)N/N=C/c2ccc(F)cc2)CC1 | GI50 | > 100 µM
CC1=CC[C@H](C(C)(C)NC(=S)N/N=C/c2cccc([N+](=O)[O-])c2)CC1 | GI50 | 0.6 µM
C=C(C)[C@H]1CC=C(C)CC1 [D-LIMONENE] | GI50 | > 100 µM
COc1ccc(/C(C)=N/NC(=S)NC(C)(C)[C@H]2CC=C(C)CC2)cc1 | GI50 | 18.7 µM
CC1=CC[C@H](C(C)(C)NC(=S)N/N=C(\C)c2ccccc2)CC1 | GI50 | 29.5 µM
CC1=CC[C@H](C(C)(C)NC(=S)N/N=C/c2ccccc2O)CC1 | GI50 | 10.9 µM

# GI50 (molecule: CC1=CC[C@H](C(C)(C)NC(=S)N/N=C/c2ccccc2)CC1 ) is 8.8 µM

Recorded result, CC1=CC[C@H](C(C)(C)NC(=S)NN)CC1 , GI50: 60.1 µM
